# testedOn: mTRPA1 (Mus musculus, UniProt Q8BLA8)
# Sequence (Q8BLA8 whole entry): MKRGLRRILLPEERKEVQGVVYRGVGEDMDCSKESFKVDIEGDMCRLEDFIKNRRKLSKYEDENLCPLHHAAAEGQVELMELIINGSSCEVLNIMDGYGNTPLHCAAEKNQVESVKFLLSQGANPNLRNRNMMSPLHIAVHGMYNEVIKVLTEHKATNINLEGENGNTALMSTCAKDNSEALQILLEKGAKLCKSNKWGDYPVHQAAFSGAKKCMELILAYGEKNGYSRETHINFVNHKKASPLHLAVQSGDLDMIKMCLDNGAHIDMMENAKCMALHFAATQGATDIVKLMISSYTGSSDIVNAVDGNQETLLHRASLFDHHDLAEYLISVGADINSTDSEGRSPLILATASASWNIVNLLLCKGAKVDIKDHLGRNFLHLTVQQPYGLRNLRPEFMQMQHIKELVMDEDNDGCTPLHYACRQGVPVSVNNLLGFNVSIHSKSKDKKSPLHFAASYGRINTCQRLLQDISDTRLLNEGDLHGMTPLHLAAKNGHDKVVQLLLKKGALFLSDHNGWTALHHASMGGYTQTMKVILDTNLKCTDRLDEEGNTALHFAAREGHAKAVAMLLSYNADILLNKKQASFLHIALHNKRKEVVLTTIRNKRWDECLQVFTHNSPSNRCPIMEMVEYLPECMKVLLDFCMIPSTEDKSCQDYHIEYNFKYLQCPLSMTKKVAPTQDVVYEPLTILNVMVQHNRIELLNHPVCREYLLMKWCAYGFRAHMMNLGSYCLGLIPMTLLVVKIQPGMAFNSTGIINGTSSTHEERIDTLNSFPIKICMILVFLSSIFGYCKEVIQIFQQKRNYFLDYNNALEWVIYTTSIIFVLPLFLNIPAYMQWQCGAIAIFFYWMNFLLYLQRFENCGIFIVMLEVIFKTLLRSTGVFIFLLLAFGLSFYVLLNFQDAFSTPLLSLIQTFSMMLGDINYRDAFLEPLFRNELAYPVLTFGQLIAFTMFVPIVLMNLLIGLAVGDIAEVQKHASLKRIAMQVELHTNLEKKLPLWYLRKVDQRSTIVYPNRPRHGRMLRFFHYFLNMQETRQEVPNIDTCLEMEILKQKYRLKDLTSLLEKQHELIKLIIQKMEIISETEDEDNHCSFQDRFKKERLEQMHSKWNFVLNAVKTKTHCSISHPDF
# protocolSummary: FDSS Ca2+-influx assay, HEK293 cells stably expressing mTRPA1
# Type: cell-based
# Set-up: expressed in transfected cells
# experimentalContext: HEK293 cells, change in [Ca2+]i; read-out: EC50, activation of mTRPA1
# Protocol: Ca^2+-influx assays were carried out using HEK293 cells stably expressing mTRPA1 channels with an FDSS screening system (Hamamatsu, Japan). […]
quantityName: EC50 (µM)
Give the number; µM is assumed, so skip it.

Prompt: Name the recorded EC50 for CCOC(=O)CC(SP(=S)(OC)OC)C(=O)OCC (centres unmarked) .
Response: 14.2

----------
# testedOn: cTRPA1 (Gallus gallus)
# Sequence (W8VTH6 1-1126): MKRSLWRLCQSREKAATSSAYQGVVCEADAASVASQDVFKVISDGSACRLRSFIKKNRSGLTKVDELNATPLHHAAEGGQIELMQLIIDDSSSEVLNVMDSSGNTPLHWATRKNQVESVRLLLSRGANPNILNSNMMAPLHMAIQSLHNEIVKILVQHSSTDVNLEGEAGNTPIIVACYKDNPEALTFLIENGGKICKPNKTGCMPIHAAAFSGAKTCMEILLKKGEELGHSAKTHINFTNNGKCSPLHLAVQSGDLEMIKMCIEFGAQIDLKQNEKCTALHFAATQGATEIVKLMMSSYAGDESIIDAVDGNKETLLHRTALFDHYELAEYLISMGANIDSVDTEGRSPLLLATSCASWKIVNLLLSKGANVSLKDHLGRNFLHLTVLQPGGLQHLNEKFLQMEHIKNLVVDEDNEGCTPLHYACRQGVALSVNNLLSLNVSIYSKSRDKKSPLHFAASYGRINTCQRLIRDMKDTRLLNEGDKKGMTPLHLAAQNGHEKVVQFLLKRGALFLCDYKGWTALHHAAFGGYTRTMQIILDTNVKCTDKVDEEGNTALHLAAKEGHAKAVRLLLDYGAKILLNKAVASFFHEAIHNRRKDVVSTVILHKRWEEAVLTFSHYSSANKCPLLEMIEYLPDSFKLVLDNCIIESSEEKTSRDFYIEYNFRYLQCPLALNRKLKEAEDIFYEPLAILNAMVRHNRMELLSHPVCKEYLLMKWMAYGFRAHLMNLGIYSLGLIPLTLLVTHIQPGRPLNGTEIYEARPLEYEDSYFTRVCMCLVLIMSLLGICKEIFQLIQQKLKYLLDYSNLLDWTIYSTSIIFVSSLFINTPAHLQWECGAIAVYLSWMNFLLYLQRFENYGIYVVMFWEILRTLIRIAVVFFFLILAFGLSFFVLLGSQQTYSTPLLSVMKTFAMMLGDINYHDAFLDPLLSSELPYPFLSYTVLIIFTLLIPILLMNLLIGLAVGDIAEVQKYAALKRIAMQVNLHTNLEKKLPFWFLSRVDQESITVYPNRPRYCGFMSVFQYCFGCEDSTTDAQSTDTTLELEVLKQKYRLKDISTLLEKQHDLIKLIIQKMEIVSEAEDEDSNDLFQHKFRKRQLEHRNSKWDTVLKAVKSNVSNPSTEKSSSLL
# protocolSummary: Whole-cell patch-clamp, HEK293 cells expressing cTRPA1
quantityName: EC50
Put down the number, then write its unit next to it.

compound	EC50
Cc1ccccc1OP(=O)(Oc1ccccc1C)Oc1ccccc1C [TOCP, tri-ortho-cresyl phosphate]	15.8 µM

Now for another entry.
Prompt: Quick check: EC50 on cTRPA1 (Gallus gallus), item CCOC(=O)CC(SP(=S)(OC)OC)C(=O)OCC (centres unmarked) ?
Response: 10.8 µM
